This collection of values is drawn from PubChem BioAssay AID743348.

procedure.details: HepG2 cytotoxicity, dose response, cytotoxicity control, cell-based, ATP luminescence, dry powder, set 10 (AID 743348)
condition.set: HepG2 viability, CellTiter-Glo ATP luminescence, 72 h; at 26 µM (top of the series)
# Condition met = activity change, negative = cytotoxicity below 10% (exclusive); Condition not met = activity change, negative = cytotoxicity at/above 10%

structure.string	assigned.category
CC(=O)c1ccc(N2CCN(C(=O)c3cc4c(cc3Cl)OCO4)CC2)cc1	Condition not met
CC(=O)c1ccc(N2CCN(C(=O)c3ccc4ocnc4c3)CC2)cc1	Condition not met
COc1cc2c(cc1C(=O)N1CCN(c3ccc(C(C)=O)cc3)CC1)OCO2	Condition met
CS(=O)(=O)c1ccc(N2CCN(C(=O)c3ccc4c(c3)OCO4)CC2)cc1	Condition met
CC(=O)c1ccc(N2CCCN(C(=O)c3ccc4c(c3)OCO4)CC2)cc1	Condition not met
